I'd appreciate it if you could supply EC50 values for the items below.
Test system: HL-60
Experiment: HL-60 differentiation potency
Format: cell-based
Details: Homo sapiens
One number for each entry, in nM.

Worked cases, answers included:
molecule	unitName	readoutValue
C[C@H]1[C@@H](OCc2ccc(C(=O)N[C@@H]3CCC[C@@H](C(=O)O)C3)cc2)O[C@@H]2O[C@@]3(C)CC[C@H]4[C@H](C)CC[C@@H]1[C@@]24OO3	nM	83.4
C[C@H]1[C@@H](Oc2c(F)cc(OCC(=O)O)cc2F)O[C@@H]2O[C@@]3(C)CC[C@H]4[C@H](C)CC[C@@H]1[C@@]24OO3	nM	71.3
C[C@H]1[C@@H](Oc2ccc(OC3CCC(C(=O)O)C3)cc2)O[C@@H]2O[C@@]3(C)CC[C@H]4[C@H](C)CC[C@@H]1[C@@]24OO3 (some centres unmarked)	nM	32.9
C[C@H]1[C@@H](OCc2ccc(C(=O)N[C@H]3CC[C@@H](C(=O)O)C3)cc2)O[C@@H]2O[C@@]3(C)CC[C@H]4[C@H](C)CC[C@@H]1[C@@]24OO3	nM	240
C[C@H]1[C@H](OCc2c(Cl)cc(C(=O)O)cc2S(C)(=O)=O)O[C@@H]2O[C@@]3(C)CC[C@H]4[C@H](C)CC[C@@H]1[C@@]24OO3	nM	53.1
C[C@H]1[C@@H](Oc2ccc(C(=O)N[C@H]3CCC[C@H]3C(=O)O)cc2)O[C@@H]2O[C@@]3(C)CC[C@H]4[C@H](C)CC[C@@H]1[C@@]24OO3	nM	33.3
C[C@H]1[C@@H](OCc2c(F)cc(C(=O)O)cc2Cl)O[C@@H]2O[C@@]3(C)CC[C@H]4[C@H](C)CC[C@@H]1[C@@]24OO3	nM	66.5
C[C@H]1[C@@H](OC/C=C/[C@@H]2CCC[C@H](C(=O)O)C2)O[C@@H]2O[C@@]3(C)CC[C@H]4[C@H](C)CC[C@@H]1[C@@]24OO3	nM	143

Go through the list and state EC50 for each entry.
1. C[C@H]1[C@@H](OCc2ccc(C(=O)N[C@H]3C[C@@H](C(=O)O)C3)cc2)O[C@@H]2O[C@@]3(C)CC[C@H]4[C@H](C)CC[C@@H]1[C@@]24OO3
2. C[C@H]1[C@@H](OC[C@H]2CC[C@@H](C(=O)NC34CCC(C(=O)O)(C3)C4)CC2)O[C@@H]2O[C@@]3(C)CC[C@H]4[C@H](C)CC[C@@H]1[C@@]24OO3
3. C[C@H]1[C@@H](Oc2ccc(C(=O)N3CC(C(=O)O)C3)cc2Cl)O[C@@H]2O[C@@]3(C)CC[C@H]4[C@H](C)CC[C@@H]1[C@@]24OO3

**A:**
354
197
101

----------
I'd appreciate it if you could supply Maximal MDS-L GlyA fold induction values for the items below.
System: MDS-L cells
Details: human
Give bare numbers, in fold.

compound	unitName	readoutValue
C[C@H]1[C@@H](O)O[C@@H]2O[C@@]3(C)CC[C@H]4[C@H](C)CC[C@@H]1[C@@]24OO3 [Dihydroartemisin, dihydro- artemisinin]	fold	7.09
C[C@H]1[C@H](OC(=O)CCC(=O)O)O[C@@H]2O[C@@]3(C)CC[C@H]4[C@H](C)CC[C@@H]1[C@@]24OO3 [Artesunate, artesunate]	fold	7.51

Go through the list and state Maximal MDS-L GlyA fold induction for each entry.
1. C[C@H]1[C@@H](OCc2ccc(C(=O)O)cc2)O[C@@H]2O[C@@]3(C)CC[C@H]4[C@H](C)CC[C@@H]1[C@@]24OO3 [Artelinic acid (artelinate), artelinate]
2. C[C@H]1[C@H](N2CCS(=O)(=O)CC2)O[C@@H]2O[C@@]3(C)CC[C@H]4[C@H](C)CC[C@@H]1[C@@]24OO3 [artemisone]
3. CCO[C@H]1O[C@@H]2O[C@@]3(C)CC[C@H]4[C@H](C)CC[C@@H]([C@H]1C)[C@@]24OO3 [Arteether, arteether]

**A:**
7.26
6.84
3.82

----------
Assay: in vitro
Conditions: human
I'd appreciate it if you could supply log10 of IC50 values for the items below.
Kindly note that the scale is log10 and the underlying IC50 is in µM.

structureSmiles	readoutValue
C[C@H]1[C@@H](Oc2cccc(CC(=O)O)c2)O[C@@H]2O[C@@]3(C)CC[C@H]4[C@H](C)CC[C@@H]1[C@@]24OO3	0.92
C[C@H]1[C@@H](OCC#Cc2ccc(C(=O)O)cc2F)O[C@@H]2O[C@@]3(C)CC[C@H]4[C@H](C)CC[C@@H]1[C@@]24OO3	-0.52
C[C@H]1[C@H](NCCS(=O)(=O)N(C)C)O[C@@H]2O[C@@]3(C)CC[C@H]4[C@H](C)CC[C@@H]1[C@@]24OO3	1.04
C[C@H]1[C@H](NCc2ccc(S(C)(=O)=O)cc2)O[C@@H]2O[C@@]3(C)CC[C@H]4[C@H](C)CC[C@@H]1[C@@]24OO3	0.92

**Q:** Would you mind telling me what log10 of IC50 value was observed for `C[C@H]1[C@H](OCc2cc(C(=O)O)ccc2Cl)O[C@@H]2O[C@@]3(C)CC[C@H]4[C@H](C)CC[C@@H]1[C@@]24OO3` ?
**A:** 0.81

----------
Assay: in vitro
Conditions: human
assayReadout: pIC50
Answers are plain numbers, as −log10 of the molar value.

molecule	pIC50
C[C@H]1[C@@H](Oc2ccc(C(=O)N3[C@H](C(=O)O)C[C@@H]4CCC[C@@H]43)cc2)O[C@@H]2O[C@@]3(C)CC[C@H]4[C@H](C)CC[C@@H]1[C@@]24OO3 [Compound 207]	6.17

Could you now look at the following molecule, please?
**Q:** Would you mind telling me what pIC50 value was observed for CC(C(=O)N[C@H]1CC[C@@H](C(=O)O)C1)c1ccc(O[C@H]2O[C@@H]3O[C@@]4(C)CC[C@H]5[C@H](C)CC[C@@H]([C@H]2C)[C@@]35OO4)c(F)c1 (some centres unmarked) [Compound 306] ?
**A:** 6.16

----------
Assay: in vitro
Settings: human, HL-60 cells
pIC50: −log10 of the molar value.
I'd appreciate it if you could supply pIC50 values for the items below.

structureSmiles	pIC50
C[C@H]1[C@@H](Oc2ccc(CC(=O)N[C@H]3CC[C@@H](C(=O)O)CC3)cc2)O[C@@H]2O[C@@]3(C)CC[C@H]4[C@H](C)CC[C@@H]1[C@@]24OO3	< 4.70
C[C@H]1[C@@H](O[C@H]2CC[C@@H](C(=O)N3CC(C(=O)O)C3)CC2)O[C@@H]2O[C@@]3(C)CC[C@H]4[C@H](C)CC[C@@H]1[C@@]24OO3	4.97
C[C@H]1[C@@H](Oc2ccc(CC(=O)N[C@H]3C[C@@H](C(=O)O)C3)cc2)O[C@@H]2O[C@@]3(C)CC[C@H]4[C@H](C)CC[C@@H]1[C@@]24OO3	< 4.70
C[C@H]1[C@@H](O[C@H]2C[C@@H](C(=O)N[C@H]3CC[C@@H](C(=O)O)C3)C2)O[C@@H]2O[C@@]3(C)CC[C@H]4[C@H](C)CC[C@@H]1[C@@]24OO3	< 4.70

Could you now look at the following compound, please?
**Q:** Would you mind telling me what pIC50 value was observed for `C[C@H]1[C@@H](O[C@H]2CC[C@@H](C(=O)N[C@@H](CC(F)(F)F)C(=O)O)CC2)O[C@@H]2O[C@@]3(C)CC[C@H]4[C@H](C)CC[C@@H]1[C@@]24OO3` ?
**A:** < 4.70

----------
Experiment: in vitro
Settings: human
With a cut-off of 700 nM, any IC50 strictly below it is called true; any IC50 meeting it or above is called false.

// known answers, use as guide
compound	category
C[C@H]1[C@@H](OCc2c(Cl)cc(C(=O)O)cc2S(C)(=O)=O)O[C@@H]2O[C@@]3(C)CC[C@H]4[C@H](C)CC[C@@H]1[C@@]24OO3 [Compound 216]	false
C[C@H]1[C@@H](OCC2(F)CCCC(C(=O)O)C2)O[C@@H]2O[C@@]3(C)CC[C@H]4[C@H](C)CC[C@@H]1[C@@]24OO3 (some centres unmarked) [Compound 222]	false
C[C@H]1[C@@H](Oc2ccc(Cn3cc(C(=O)O)nn3)c(Br)c2)O[C@@H]2O[C@@]3(C)CC[C@H]4[C@H](C)CC[C@@H]1[C@@]24OO3 [Compound 264]	false
C[C@H]1[C@@H](O[C@H]2CC[C@@H](C(=O)N[C@H](C(=O)O)C3CCC3)CC2)O[C@@H]2O[C@@]3(C)CC[C@H]4[C@H](C)CC[C@@H]1[C@@]24OO3 [Compound 252]	false
C[C@H]1[C@@H](Oc2ccc3[nH]c(C(=O)O)cc3c2)O[C@@H]2O[C@@]3(C)CC[C@H]4[C@H](C)CC[C@@H]1[C@@]24OO3 [Compound 208]	true

**Q:** Please check: IC50 for C[C@H]1[C@@H](OC/C=C/[C@]2(F)CC[C@H](C(=O)O)CC2)O[C@@H]2O[C@@]3(C)CC[C@H]4[C@H](C)CC[C@@H]1[C@@]24OO3 [Compound 271] , strictly under 700 nM or not?
**A:** false

**Q:** Please check: IC50 for C[C@H]1[C@@H](OCc2ccc(NC(=O)[C@H]3CC[C@@H](C(=O)O)C3)cc2)O[C@@H]2O[C@@]3(C)CC[C@H]4[C@H](C)CC[C@@H]1[C@@]24OO3 [Compound 294] , strictly under 700 nM or not?
**A:** false

**Q:** Please check: IC50 for C[C@H]1[C@@H](Oc2ccc(CC(=O)NC34CC(C(=O)O)(C3)C4)cc2)O[C@@H]2O[C@@]3(C)CC[C@H]4[C@H](C)CC[C@@H]1[C@@]24OO3 [Compound 303] , strictly under 700 nM or not?
**A:** false

**Q:** Please check: IC50 for C[C@H]1[C@@H](Oc2ccc(C(=O)Nc3ccc(C(=O)O)cc3)cc2)O[C@@H]2O[C@@]3(C)CC[C@H]4[C@H](C)CC[C@@H]1[C@@]24OO3 [Compound 246] , strictly under 700 nM or not?
**A:** true

**Q:** Please check: IC50 for C[C@H]1[C@@H](Oc2ccc(C(=O)N3C[C@H]4[C@@H]([C@H]3C(=O)O)C4(C)C)cc2)O[C@@H]2O[C@@]3(C)CC[C@H]4[C@H](C)CC[C@@H]1[C@@]24OO3 [Compound 190] , strictly under 700 nM or not?
**A:** true
